# Experiment: chemical genetic growth profiling, strain panel (AID 1159580);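 also: tested at 20 µM; growth read once vehicle control cultures reached saturation at 30 °C; lower values mean less growth of the strain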
# Measurement Context: S. cerevisiae deletion strains, growth OD, locus YER110C, active compounds read low
In all, about 5,500 compounds went through this assay and about 2,000 (36%) were called active. Another 18% or so got no clear call; they are omitted. The list shows a part of the results.
Threshold-based label: normalized growth under 1 gives YES, normalized growth not under 1 gives NO.

1) O=c1cc(CO)occ1O    NO
2) C[C@@H]1CC[C@H]2[C@@H](C)C(=O)O[C@@H]3O[C@@]4(C)CC[C@@H]1[C@]32OO4    YES
3) C[C@H]1[C@H](C)CC[C@]2(CO)CC[C@]3(C)C(=CCC4[C@@]5(C)CC[C@H](O)C(C)(C)C5CC[C@]43C)[C@H]12 (stereo not given in full)    NO
4) Clc1ccccc1C(c1ccccc1)(c1ccccc1)n1ccnc1    YES
5) N[C@H](C(=O)O)[C@@H]1CC(Cl)=NO1    YES
6) N=C(N)c1ccc(OCCCCCOc2ccc(C(=N)N)cc2)cc1    YES
7) C/C=C(/C)C(=O)O[C@@H]1[C@H](OC(C)=O)[C@@]2(CO)C(CC1(C)C)C1=CCC3[C@@]4(C)CC[C@H](O[C@@H]5O[C@H](C(=O)O)[C@@H](O[C@@H]6O[C@H](CO)[C@@H](O)[C@H](O)[C@H]6O)[C@H](O)[C@H]5O[C@@H]5O[C@H](CO)[C@@H](O)[C@H](O)[C@H]5O)[C@](C)(CO)C4CC[C@@]3(C)[C@]1(C)C[C@H]2O (stereo not given in full)    NO
8) C#C[C@]1(OC(C)=O)CCC2C3CCC4=CC(=O)CC[C@@H]4C3CC[C@@]21C (stereo not given in full)    YES
9) C/C=C(/C)C(=O)O[C@H]1CC[C@@]2(C)[C@@H]3CC[C@H]4[C@]5(O)C[C@H](O)[C@@]6(O)[C@@H](CN7C[C@@H](C)CC[C@H]7[C@@]6(C)O)[C@]5(O)C[C@@]42O[C@]13O    YES
10) COc1ccc2[nH]cc(CCN)c2c1    YES
11) C[C@@H]1CC[C@H]2[C@@H](C)C(O)O[C@@H]3O[C@@]4(C)CC[C@@H]1[C@]32OO4 (stereo not given in full)    YES

###

# Experiment: chemical genetic growth profiling, strain panel (AID 1159580);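 also: tested at 20 µM; growth read once vehicle control cultures reached saturation at 30 °C; lower values mean less growth of the strain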
# Measurement Context: S. cerevisiae deletion strains, growth OD, locus YJR075W, strain HOC1
In all, about 5,500 compounds went through this assay and about 2,000 (36%) were called active. Not shown: some 18% with an inconclusive outcome. No stated cut-off is given here; in the data, active means normalized growth mostly below about 0.91 (no sharp cut-off); inconclusive means no clear call, values can overlap the other calls; inactive means mostly above about 0.92. The list shows a part of the results.
Classes used: TRUE for active, FALSE for inactive

1. CCOC(=O)c1nc(-c2ccccc2)sc1C(=O)OCC    FALSE
2. Cc1noc(C)c1NC(N)=O    FALSE
3. C/C=C1\[C@H]2C=C(C)C[C@]1(N)c1ccc(=O)[nH]c1C2    FALSE
4. COc1cc(C2OC(c3cc(C)ccc3[N+](=O)[O-])=NN2C(C)=O)cc(OC)c1OC (configuration not stated)    FALSE
5. CCOP(=S)(OCC)Oc1cc(C)nc(C(C)C)n1    FALSE
6. C#C[C@]1(O)CCC2C3CCC4=C(CCC(=O)C4)C3CC[C@@]21C (some centres not stated)    FALSE
7. CC(=O)Nc1c(C)c(C)c(C)c(C)c1NC(C)=O    FALSE
8. N#CC(NCc1ccccc1)c1ccc(Cl)c(Cl)c1 (configuration not stated)    FALSE
9. Cc1noc(N)c1C(N)=S    FALSE
10. O=C(COc1ccc2c(c1)OCO2)N1CCN(c2ncc(C(F)(F)F)cc2Cl)CC1    FALSE
11. Cc1c(Br)sc2ccc(Cl)cc12    FALSE
12. CC(C)(C)OC(=O)C(C)(C)S(=O)(=O)c1ccc(Cl)cc1    FALSE
13. C[C@@H]1CC[C@H]2[C@@H](C)C(O)O[C@@H]3O[C@@]4(C)CC[C@@H]1[C@]32OO4 (some centres not stated)    TRUE
14. O=C(Nc1ccc(Cl)c(Cl)c1)c1ccccc1    TRUE
15. CCOC(=O)c1ccc2[nH]c(-c3ccccc3)cc(=O)c2c1    FALSE
16. CNC(=O)O/N=C\C(C)(C)SC    FALSE
17. Cc1cc(OCOc2ccc(Cl)c(C)c2)ccc1Cl    FALSE
18. CCOC(=O)OC(C)OC(=O)C1N2C(=O)C(NC(=O)[C@H](N)c3ccccc3)C2SC1(C)C (some centres not stated)    FALSE
19. CC(C)(C)c1nccc(-c2nn(-c3ccc(F)cc3)ccc2=O)n1    FALSE
20. C[C@]12CCC(=O)C=C1CCC1C2[C@@H](O)C[C@@]2(C)C1CC[C@]2(O)C(=O)CO (some centres not stated)    FALSE
21. COc1cc(OC)nc(N)n1    FALSE
22. Nc1ccc(S(=O)(=O)c2ccc(N)cc2)cc1    FALSE
23. CCc1cc2c(cc1C(=O)CC1(O)C(=O)Nc3ccc(Br)cc31)C(C)(C)CCC2(C)C (configuration not stated)    FALSE
24. FC(F)(F)c1cnc(N2CCN(C(=S)Nc3ccccc3)CC2)c(Cl)c1    FALSE
25. O=[N+]([O-])c1ccc(S(=O)(=O)c2ccc(Cl)cc2)cc1O    TRUE
26. C/C(O)=C(\C#N)C(=O)Nc1cc(Br)ccc1Br    FALSE
27. CC(C)C(=O)c1c(C(C)C)nn2ccccc12    FALSE
28. O=C(O/N=C\c1ccc2c(c1)OCO2)c1ccccc1Br    FALSE
29. COC(=O)C1Cc2c([nH]c3ccccc23)C2(CCN(C)CC2)N1 (configuration not stated)    FALSE
30. Cc1cc(O)cc(=O)o1    FALSE
31. CC(C)c1ccccc1NC(=S)N1CCN(c2ncc(C(F)(F)F)cc2Cl)CC1    FALSE
32. CC(=O)[C@]1(O)Cc2c(O)c3c(c(O)c2[C@@H](O[C@H]2C[C@H](N)[C@H](O)[C@H](C)O2)C1)C(=O)c1ccccc1C3=O    TRUE
33. Cc1cc(C2=CSC3=NCCN23)ccc1Cl    FALSE
34. S=C(NCc1cccnc1)Nc1ccccc1Cl    FALSE
35. NCC1OC(O[C@@H]2[C@H](O)C(OC3C(O)C(N)CC(N)C3OC3OC(CO)C(O)C(O)C3N)O[C@@H]2CO)C(N)C(O)C1O (some centres not stated)    FALSE
36. Cc1cc(C)cc(NC(=S)N2CCN(c3ncc(C(F)(F)F)cc3Cl)CC2)c1    FALSE
37. COc1cccc(-c2nc(C#N)c(N)o2)c1    FALSE
38. Cc1csc2ccc(Cl)cc12    FALSE
39. C=C/C(C)=C\CC1C(C)(O)CCC2C(C)(C)CCCC21C (configuration not stated)    TRUE
40. Cc1nc(-c2nnc(Sc3ccc(C(F)(F)F)cc3[N+](=O)[O-])n2C)cs1    FALSE
41. NC(Cc1c[nH]c2ccccc12)C(=O)O (configuration not stated)    FALSE
42. C[C@@H]1CC[C@H]2[C@@H](C)C(=O)O[C@@H]3O[C@@]4(C)CC[C@@H]1[C@]32OO4    TRUE
43. S=C(NCc1ccccc1)Nc1ccc(Cl)c(Cl)c1    FALSE
44. NNC(=O)c1ccncc1    FALSE
45. Cc1noc(C)c1C(=O)N1CCN(c2ncc(C(F)(F)F)cc2Cl)CC1    FALSE
46. COc1ccc(C(=O)NCc2cccnc2)cc1C(=O)NCc1cccnc1    FALSE
47. CCOC(=O)c1sc(-c2ccc(C)cc2)nc1O    TRUE
